target_of_assay: Gal(b1-4)GlcNAc(b1-3)Gal(b1-4)GlcNAc(b1-3)[Gal(b1-4)GlcNAc(b1-3)Gal(b1-4)GlcNAc(b1-6)]GalNAc
method_summary: glycan array binding signal (z-score within array); higher = stronger binding
applied_conditions: glycan notation: IUPAC condensed, linker removed
The entries come from a sample that favours the strongest signals as a whole.
measured_endpoint: glycan array binding signal (z-score)

Worked examples follow.
binder	glycan array binding signal (z-score)
Erv41-EDTA (Saccharomyces cerevisiae), Q04651 (protein) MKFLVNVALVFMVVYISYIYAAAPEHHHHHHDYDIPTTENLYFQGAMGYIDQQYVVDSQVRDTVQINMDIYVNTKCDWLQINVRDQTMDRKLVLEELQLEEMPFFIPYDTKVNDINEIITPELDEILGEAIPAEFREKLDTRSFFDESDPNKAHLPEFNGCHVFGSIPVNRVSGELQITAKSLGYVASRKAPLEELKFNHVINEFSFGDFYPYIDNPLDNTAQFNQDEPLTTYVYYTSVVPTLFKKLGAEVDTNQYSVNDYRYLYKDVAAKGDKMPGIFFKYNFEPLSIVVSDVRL	1.32
ABA (Agaricus bisporus), Q00022 (protein) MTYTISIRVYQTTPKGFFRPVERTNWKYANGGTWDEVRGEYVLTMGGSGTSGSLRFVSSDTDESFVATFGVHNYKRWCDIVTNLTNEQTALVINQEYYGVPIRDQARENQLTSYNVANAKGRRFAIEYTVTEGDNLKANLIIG	1.8

Now consider a different binder.
Q: Can you share its glycan array binding signal (z-score)? I mean this binder: KISKRILTGKK [NK11 (Sus scrofa)]
Ans: 3.55
